Provenance of the data: patent US20180194862A1

- Measured Target: T1, mesothelin on cells (endogenous on SN12C, OVCAR3, SW1990); HEK293 cells expressing cell-surface human … (human, UniProt Q13421 296-598)
- T1 construct: whole, on cells; also called cell-surface MSLN
- T1 sequence (Q13421 other isoform, or with tags, fused parts or gaps limits assumed): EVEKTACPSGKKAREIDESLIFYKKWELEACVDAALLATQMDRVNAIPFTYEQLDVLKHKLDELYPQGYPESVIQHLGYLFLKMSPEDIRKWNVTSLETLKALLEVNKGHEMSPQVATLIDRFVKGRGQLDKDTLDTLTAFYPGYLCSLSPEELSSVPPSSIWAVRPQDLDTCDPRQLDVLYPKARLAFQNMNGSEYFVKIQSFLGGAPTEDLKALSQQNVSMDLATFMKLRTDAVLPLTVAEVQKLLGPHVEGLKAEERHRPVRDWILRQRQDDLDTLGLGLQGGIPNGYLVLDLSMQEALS
- Experiment Summary: FACS, SN12C (CA125-)
Reported Endpoint: Maximum binding (MFI)

1. HuAM12 (antibody, V domains shown, fully human antibody) VH: EVQLVQSGAEVKKPGASVKVSCKASGDTFHRYYVHWVRQAPGQGLEWMGIINPSGVSTTYAQKFQGRVTMTRDTSTSTVYMELSSLRSEDTAVYYCAEVRGSGFNYFGMDVWGQGTLVTVSS VL: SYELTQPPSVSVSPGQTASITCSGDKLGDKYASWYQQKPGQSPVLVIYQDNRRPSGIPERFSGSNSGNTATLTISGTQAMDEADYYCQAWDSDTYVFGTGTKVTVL ... 9630
2. HuAb17 (antibody, V domains shown, fully human antibody) VH: EVQLVQSGAEVKEPGASVKVSCKASGDTFNRYYVHWARQAPGQGLEWMGIINPSGVSTTYAQKFQGRVTMTRDTPTNTVYMELGSLRPEDTAVYFCAESRGSGYNYFAMDVWGQGTLVTVSS VL: SYELTQPPSVSVSPGQTADITCSGDKLGDKYASWYQQKPGQSPVLVIYQDNRRPSGIPERFSGSNSGNTATLTISGTQAMDEADYYCQAWDSDTYVFGPGTKVTVL ... 11000
3. HuAM11 (antibody, V domains shown, fully human antibody) VH: EVQLVQSGAEVKKPGASVKVSCKASGDTFKRYYMHWVRQAPGQGLEWMGIINPSGVSTTYAQKFQGRVTMTRDTSTSTVYMELSSLRSEDTAVYYCAEVRGSGFNYFGMDVWGQGTLVTVSS VL: SYELTQPPSVSVSPGQTASITCSGDKLGDKYASWYQQKPGQSPVLVIYQDNRRPSGIPERFSGSNSGNTATLTISGTQAMDEADYYCQVWDSDTYVFGTGTKVTVL ... 7530
4. HuAM5 (antibody, V domains shown, fully human antibody) VH: EVQLVQSGAEVKKPGASVKVSCKASGDTFNRYYVHWVRQAPGQGLEWMGIINPSGVSTTYAQKFQGRVTMTRDTSTSTVYMELSSLRSEDTAVYYCAEVRGSGYNYFAMDVWGQGTLVTVSS VL: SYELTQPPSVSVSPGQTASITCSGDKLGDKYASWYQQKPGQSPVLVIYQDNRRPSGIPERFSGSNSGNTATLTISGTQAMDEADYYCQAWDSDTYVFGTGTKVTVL ... 10000
5. HuAM16 (antibody, V domains shown, fully human antibody) VH: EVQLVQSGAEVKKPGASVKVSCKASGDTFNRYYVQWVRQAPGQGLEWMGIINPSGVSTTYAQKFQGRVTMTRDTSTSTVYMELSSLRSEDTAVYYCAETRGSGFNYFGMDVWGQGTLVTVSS VL: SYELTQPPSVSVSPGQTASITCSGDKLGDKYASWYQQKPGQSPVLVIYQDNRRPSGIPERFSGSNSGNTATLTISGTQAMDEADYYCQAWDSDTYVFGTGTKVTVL ... 9540
